This listing pairs molecules with measured pIC50.
system: human gastric cancer cells SNU-5 with high expression of c-Met; test: c-Met cell proliferation inhibition test (CCK-8, 72 hours); type: cell-based; conditions: SNU-5 cells
In simple prose, pIC50 is minus the logarithm base ten of a concentration in moles per litre.

Use these answered entries as a reference point.
# Molecule, pIC50
measured = [
    ("Cn1cc(-c2ccc3nnc(C(F)(F)c4ccc5ncccc5c4)n3n2)cn1 [JNJ-38877605, reference compound]", 8.33),
    ("CN1C(=O)COc2c1cnc1cc(F)c(C(F)(F)c3nnc4ccc(-c5cnn(C)c5)nn34)cc21 [Embodiment 1]", 8.92),
]

Field: next molecule
Prompt: State its pIC50 for this molecule: CN1C(=O)COc2c1cnc1cc(F)c(Sc3nnc4ccc(-c5cnn(C)c5)nn34)cc21 [Embodiment 2]
Completion: 8.55

----------
biological target: c-Met kinase (Homo sapiens)
Sequence (P08581 25-1390): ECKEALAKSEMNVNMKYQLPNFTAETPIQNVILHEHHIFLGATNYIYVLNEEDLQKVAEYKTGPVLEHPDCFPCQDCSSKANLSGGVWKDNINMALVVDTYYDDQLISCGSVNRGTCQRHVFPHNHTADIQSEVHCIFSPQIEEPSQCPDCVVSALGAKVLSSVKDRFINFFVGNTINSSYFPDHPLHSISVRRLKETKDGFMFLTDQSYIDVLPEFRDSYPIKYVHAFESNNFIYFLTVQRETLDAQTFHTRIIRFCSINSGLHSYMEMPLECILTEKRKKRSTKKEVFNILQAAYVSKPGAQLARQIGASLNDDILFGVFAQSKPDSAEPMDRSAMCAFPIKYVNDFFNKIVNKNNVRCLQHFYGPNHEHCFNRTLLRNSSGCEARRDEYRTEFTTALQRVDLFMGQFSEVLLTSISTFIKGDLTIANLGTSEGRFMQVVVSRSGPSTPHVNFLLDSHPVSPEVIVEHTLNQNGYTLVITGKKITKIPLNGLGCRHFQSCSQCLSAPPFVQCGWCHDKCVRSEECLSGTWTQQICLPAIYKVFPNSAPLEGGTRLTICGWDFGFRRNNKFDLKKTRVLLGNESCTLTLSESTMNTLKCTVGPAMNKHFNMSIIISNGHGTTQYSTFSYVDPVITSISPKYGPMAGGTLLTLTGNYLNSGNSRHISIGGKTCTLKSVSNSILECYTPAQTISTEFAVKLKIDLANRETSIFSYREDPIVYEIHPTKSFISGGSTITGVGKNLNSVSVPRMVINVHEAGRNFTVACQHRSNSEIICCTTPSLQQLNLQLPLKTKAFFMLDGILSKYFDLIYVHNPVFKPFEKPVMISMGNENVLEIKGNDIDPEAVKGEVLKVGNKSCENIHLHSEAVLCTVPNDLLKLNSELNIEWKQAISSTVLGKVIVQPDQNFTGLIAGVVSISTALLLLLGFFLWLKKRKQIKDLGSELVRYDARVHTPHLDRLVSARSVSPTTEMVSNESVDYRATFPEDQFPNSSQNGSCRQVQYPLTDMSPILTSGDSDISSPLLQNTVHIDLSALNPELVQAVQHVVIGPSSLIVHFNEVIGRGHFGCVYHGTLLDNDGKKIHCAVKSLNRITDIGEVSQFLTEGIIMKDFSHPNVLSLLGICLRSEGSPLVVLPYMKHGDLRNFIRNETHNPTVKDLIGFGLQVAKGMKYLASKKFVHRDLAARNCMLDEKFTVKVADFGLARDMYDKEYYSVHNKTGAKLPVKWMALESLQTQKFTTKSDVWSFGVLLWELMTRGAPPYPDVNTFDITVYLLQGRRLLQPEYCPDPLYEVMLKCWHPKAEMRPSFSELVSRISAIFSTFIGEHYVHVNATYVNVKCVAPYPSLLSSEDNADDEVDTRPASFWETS
Measured Quantity: IC50

# Compound, Observed
measured = [
    ("Cn1cc(-c2ccc3nnc(C(F)(F)c4ccc5ncccc5c4)n3n2)cn1 [JNJ-38877605, reference compound]", "4.9 nM"),
]

Prompt: Please respond with reported IC50 (system c-Met kinase (Homo sapiens)) for CN1C(=O)COc2c1cnc1cc(F)c(Sc3nnc4ccc(-c5cnn(C)c5)nn34)cc21 .
Completion: 2.2 nM
